Assay summary: recombinant UMI read abundance after kanamycin selection (control-corrected) (log10(CPM+1)); higher = more efficient recombination; extreme values may be limits of the assay; sequences stand for … in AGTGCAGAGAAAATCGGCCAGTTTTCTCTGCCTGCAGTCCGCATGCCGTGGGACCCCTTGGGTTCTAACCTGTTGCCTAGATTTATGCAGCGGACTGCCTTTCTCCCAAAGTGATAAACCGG…AGGTTGGTTTCACT; site = the 11-nt donor;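 note: IS621 bridge recombinase in Escherichia coli cells against a fixed T5 target plasmid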
Threshold check on recombinant UMI read abundance (log10): at or above 0.3 gives Condition met, strictly below gives Condition not met.

Does CAAGTCACATGGACCGGTTTTCCCGGTAATCCGTATTTGCG (site CAAGTCACTCG) have a reported recombinant UMI read abundance (log10) of at least 0.3?
Condition met

Then CCCTTCTCATGGACCGGTTTTCCCGGTAATCCGTATTTGTG (site CCCTTCTCTCA) ?
Condition met

Then CCCCACCCATGGACCGGTTTTCCCGGTAATCCGTATTTGTA (site CCCCACTCTTA) ?
Condition met

Then GTAGTAGCATGGACCGGTTTTCCCGGTAATCCGTATTTGCG (site GTAGTGGCTCG) ?
Condition met

Then TTATCATCATGGACCGGTTTTCCCGGTAATCCGTATTTGCA (site TTATCATCTTG) ?
Condition met

Then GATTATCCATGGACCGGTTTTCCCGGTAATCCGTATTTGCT (site GATTATCCTGG) ?
Condition not met

Then AACTGTCCATGGACCGGTTTTCCCGGTAATCCGTATTTGAT (site AACGGTCCTAT) ?
Condition not met

Then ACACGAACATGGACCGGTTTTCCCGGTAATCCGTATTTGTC (site ACACGAACTGC) ?
Condition not met

Then AAGTAATCATGGACCGGTTTTCCCGGTAATCCGTATTTGAG (site AAGTAATCTCT) ?
Condition met

Then CACTAGGCATGGACCGGTTTTCCCGGTAATCCGTATTTGGA (site CACTAGGCTTC) ?
Condition met

Then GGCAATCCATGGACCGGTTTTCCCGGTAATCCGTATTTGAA (site GGCCATCCTTT) ?
Condition not met

Then CCTGATACATGGACCGGTTTTCCCGGTAATCCGTATTTGGC (site CCTAATACTGC) ?
Condition not met

Then ACTAAATCATGGACCGGTTTTCCCGGTAATCCGTATTTGGC (site ACTAAATCTGC) ?
Condition not met

Then TCTATAGCATGGACCGGTTTTCCCGGTAATCCGTATTTGAC (site TCTATAGCTGT) ?
Condition not met

Then CGAGCATCATGGACCGGTTTTCCCGGTAATCCGTATTTGGT (site CGAGCATCTAC) ?
Condition met

Then CTATTAACATGGACCGGTTTTCCCGGTAATCCGTATTTGGA (site CTATTAACTTC) ?
Condition met

Then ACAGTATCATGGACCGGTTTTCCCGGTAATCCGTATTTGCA (site ACAGACTCTTG) ?
Condition met

====

Assay summary: recombinant UMI read abundance after kanamycin selection (control-corrected) (log10(CPM+1)); higher = more efficient recombination; extreme values may be limits of the assay; sequences stand for … in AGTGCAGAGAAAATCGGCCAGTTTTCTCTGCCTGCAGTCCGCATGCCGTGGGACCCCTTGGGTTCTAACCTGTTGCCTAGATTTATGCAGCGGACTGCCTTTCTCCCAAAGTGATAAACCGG…AGGTTGGTTTCACT; site = the 11-nt donor
Threshold check on recombinant UMI read abundance (log10): at or above 0.2 gives class 1, strictly below gives class 0.

Does TATCTATCATGGACCGGTTTTCCCGGTAATCCGTATTTGTC (site TATCTATCTGA) have a reported recombinant UMI read abundance (log10) of at least 0.2?
class 1

Then ATCTATACATGGACCGGTTTTCCCGGTAATCCGTATTTGGC (site ATCTATACTGG) ?
class 0

Then CCATACTCATGGACCGGTTTTCCCGGTAATCCGTATTTGCA (site GCATACTCTTG) ?
class 0

Then TAGGAATCATGGACCGGTTTTCCCGGTAATCCGTATTTGGG (site TAGGAATCTCC) ?
class 1

Then GCTGTTCCATGGACCGGTTTTCCCGGTAATCCGTATTTGGT (site GATGTTCCTAC) ?
class 0

Then TTTTTGGCATGGACCGGTTTTCCCGGTAATCCGTATTTGTG (site TATTTGGCTCA) ?
class 0

Then GACCGTCCATGGACCGGTTTTCCCGGTAATCCGTATTTGAT (site TACCGTCCTAT) ?
class 0

Then CGGGAGGCATGGACCGGTTTTCCCGGTAATCCGTATTTGCC (site CGGGAGTCTGG) ?
class 0

Then GCGGCACCATGGACCGGTTTTCCCGGTAATCCGTATTTGCA (site GTGGCACCTTG) ?
class 0

Then CGATGCTCATGGACCGGTTTTCCCGGTAATCCGTATTTGAA (site CCATGCTCTTT) ?
class 0

Then TAGGTATCATGGACCGGTTTTCCCGGTAATCCGTATTTGCG (site TAGGAATCTCG) ?
class 1

Then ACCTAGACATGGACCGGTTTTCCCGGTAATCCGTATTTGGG (site ACCTGGACTCC) ?
class 0

Then CGGAACCCATGGACCGGTTTTCCCGGTAATCCGTATTTGTT (site CGGAATCCTAA) ?
class 1

Then GTAGACGCATGGACCGGTTTTCCCGGTAATCCGTATTTGCG (site GTAGACGCTCG) ?
class 1

Then AAAGTCACATGGACCGGTTTTCCCGGTAATCCGTATTTGGG (site AAAGTCACTCC) ?
class 0

Then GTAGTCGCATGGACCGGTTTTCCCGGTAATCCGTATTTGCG (site GCAGTCGCTCG) ?
class 0

Then CGTTAGACATGGACCGGTTTTCCCGGTAATCCGTATTTGAT (site CGTTAGACTTT) ?
class 0
